System: M14 melanoma
Test: NCI-60 one-dose screen, 48 h (100 = growth as untreated, 0 = no growth, -100 = all killed)
Conditions: 10 µM unless noted
This is part of a sample that, as a whole, favours compounds with a hit. Of some 83,000 tested, about 20% had one in any assay.
Parameter measured: growth (%)
Note: unit % is implicit; provide only the numeric part.

Sample records with growth:
- Compound: "O=[N+]([O-])CC(c1ccccc1F)c1c[nH]c2ccccc12 (centres undefined)"
  Assay target: "M14 melanoma"
  growth (%): 52.3
- Compound: "Clc1ccc(-c2ccc(CNCC3CCNCC3)o2)c(-c2ccccc2)c1"
  Assay target: "M14 melanoma"
  growth (%): -83.3
- Compound: "NS(=O)(=O)c1ccc(CCN2C(=O)C=CC2=O)cc1"
  Assay target: "M14 melanoma"
  growth (%): 107
- Compound: "N#C/C(=C\\c1ccc(C(F)(F)F)cc1)c1cc2ccccc2[nH]1"
  Assay target: "M14 melanoma"
  growth (%): 108
- Compound: "COc1ccc(OC)c(-c2cc(-c3ccc(Cl)cc3)c3c(N)c(C(=O)c4ccc(Cl)cc4)sc3n2)c1"
  Assay target: "M14 melanoma"
  growth (%): 102

Per the records, this compound ( `O=C1C=CC(=O)N1c1cccc(Cl)c1` ) has growth equal to 114

Per the records, this compound ( N#CC1=C(N)Oc2c(cnn2-c2ccc([N+](=O)[O-])cc2[N+](=O)[O-])C1c1ccccc1 (centres undefined) ) has growth equal to 95.3

Per the records, this compound ( `CCCCOc1ccc(/C(C)=N/Nc2cc(C)nc3ccc(Br)cc23)cc1` ) has growth equal to 104

Per the records, this compound ( `COc1cc(/C=C2\COc3ccc(-c4ccccc4)cc3C2=O)cc(OC)c1` ) has growth equal to 91.9

Per the records, this compound ( `Cn1cc(-c2nc(-c3c[nH]c4c(Cl)nccc34)cs2)c2cc(Br)ccc21` ) has growth equal to 73.5

Per the records, this compound ( COc1cc(C2C3CC4CCCC[C@H]4N3[C@@]3(C(=O)Nc4cc(Cl)ccc43)C2C(=O)c2nc3ccccc3[nH]2)cc(OC)c1OC (some centres undefined) ) has growth equal to 52

Per the records, this compound ( `Cc1ccc(/C=C(/C#N)n2nnc3cccc(F)c32)cc1` ) has growth equal to -13.6

Per the records, this compound ( N#CC(C(=O)/C(=N/NC(=O)c1ccccc1O)C(C#N)c1ccccc1)c1ccccc1 (centres undefined) ) has growth equal to 46.4

Per the records, this compound ( `OCc1cnc2ccccc2c1NC1CCCCCC1` ) has growth equal to 91.4

Per the records, this compound ( `Nc1nc(Nc2ccccc2SSc2ccccc2Nc2nc(N)nc(-c3cccs3)n2)nc(-c2ccsc2)n1` ) has growth equal to 96.5

Per the records, this compound ( `N#C/C(=C\c1ccc(Cl)cc1)n1nnc2cc(F)c(F)cc21` ) has growth equal to 11.1

Per the records, this compound ( `Oc1ccc(C(c2ccc(O)cc2)c2ccc(Br)cn2)cc1` ) has growth equal to 78.8

Per the records, this compound ( `COc1ccc(NC(=O)c2cc(NCc3cc(O)ccc3O)ccc2O)cc1` ) has growth equal to 95.1

Per the records, this compound ( Cn1cc(CC2CC(=O)N(c3ccccc3)C2=O)sc1=NC(=O)c1ccccc1 (centres undefined) ) has growth equal to 90.9

###

System: BT-549 breast
Test: NCI-60 one-dose screen, 48 h (100 = growth as untreated, 0 = no growth, -100 = all killed)
Conditions: 10 µM unless noted
About 83,000 compounds went through this panel and 20% of them were active in at least one assay; those are over-represented in the sample as a whole.
Known growth of a selection of compounds
Note: unit % is implicit; provide only the numeric part.

Per the records, this compound ( `Cn1ccnc1C(=O)/C=C/c1ccc(CC(=O)Nc2ccc(F)cc2)cc1` ) has growth equal to 23.6

###

System: IGROV1 ovarian
Assay: NCI-60 one-dose screen, 48 h (100 = growth as untreated, 0 = no growth, -100 = all killed)
Conditions: 10 µM unless noted
The panel holds about 83,000 compounds, 20% with a hit somewhere; the sample as a whole holds those more often.
# label = yes if growth < 60% else no

- Compound: "COc1cc(/C=C2\\COc3ccc(-c4ccccc4)cc3C2=O)cc(OC)c1"
  Cat: "no"
- Compound: "COc1cc(C(=O)Nc2cc3c(cc2Oc2cc(C)cc(C)c2)C(=O)N(C)[C@@H](CC(=O)N(C)O)C(=O)N3)c(Br)c(OC)c1OC"
  Cat: "yes"
- Compound: "COc1cc(/C=N/NC(=O)c2cnn3c2NC(c2ccccc2)C3)ccc1Oc1ccccc1 (stereo not drawn)"
  Cat: "yes"
- Compound: "COc1cc(CC(=O)n2ncc3ccc(N)cc32)cc(OC)c1OC"
  Cat: "no"
- Compound: "O=S(=O)(NCCNc1nccc(-c2c(-c3cccc(O)c3)nc3occn23)n1)c1ccc(Cl)cc1"
  Cat: "no"

Ask: Consider the compound `COc1ccc(C(=O)Cn2c(C(=O)c3ccccc3)nc3ccccc32)cc1` . Is its growth strictly less than 60%?
Result: yes

Ask: Consider the compound CCN(CC)CCOc1ccc(NC(=O)C(C(C)C)N2C(=O)/C(=C/c3ccc(Br)cc3)SC2=S)cc1 (stereo not drawn) . Is its growth strictly less than 60%?
Result: no

###

System: OVCAR-8 ovarian
Experiment: NCI-60 one-dose screen, 48 h
Details: 10 µM unless noted
Compounds without any hit were thinned out: in the full panel of roughly 83,000, 20% have a hit. Calls of active or inactive are those of the source. The calls were made as follows: active = growth percent below 10; inactive = the rest.
Return exactly one item of label 1 = active, label 0 = inactive

- Compound: "C#CCNC(=O)[C@H](Cc1ccccc1)NC(=O)[C@]12CC[C@@H](C(=C)C)[C@@H]1[C@H]1CC[C@@H]3[C@@]4(C)CCC(=O)C(C)(C)[C@@H]4CC[C@@]3(C)[C@]1(C)CC2"
  Assay target: "OVCAR-8 ovarian"
  Cat: "label 0"

Now consider the entry below.
Ask: Record request — test call for `CCCCCN1C=C/C(=C\C(=O)n2ccc3ccccc32)c2ccccc21`
Result: label 0

###

Known growth of a selection of compounds
System: HCT-116 colon
Experiment: NCI-60 one-dose screen, 48 h (100 = growth as untreated, 0 = no growth, -100 = all killed)
Conditions: 10 µM unless noted
The panel holds about 83,000 compounds, 20% with a hit somewhere; the sample as a whole holds those more often. Activity calls are given as the source filed them. How the source made its calls: active means growth percent below 10; inactive means the rest.

Sample records with growth:
- Compound: "Cc1ccc(NC(C(=O)c2ccccc2)c2ccccc2)cc1 (centres undefined)"
  Parameter measured: "growth"
  Assay result: "35.6% (inactive)"
- Compound: "NS(=O)(=O)c1ccc(CCn2c(SCC(=O)c3ccc(Cl)cc3)nc3ccccc3c2=O)cc1"
  Parameter measured: "growth"
  Assay result: "97% (inactive)"
- Compound: "COc1ccc2[nH]c(=O)c(CN3CCN(c4nccc(-c5ccc(Cl)cc5)n4)CC3)cc2c1"
  Parameter measured: "growth"
  Assay result: "86.4% (inactive)"
- Compound: "CCCC/C=N/NC(=S)NCc1ccccc1"
  Parameter measured: "growth"
  Assay result: "90.9% (inactive)"
- Compound: "O=C(/C=C(/C=C/c1coc2ccccc12)OB(F)F)/C=C/c1coc2ccccc12"
  Parameter measured: "growth"
  Assay result: "75.3% (inactive)"

Shift focus to the following entry.
Per the records, this compound ( `O=C1/C=C/[C@@H](O)[C@@H]2C[C@@H](O)C[C@H]2/C=C/CCC[C@H](CCc2ccc3ncccc3c2)O1` ) has growth equal to -53.6% (active)

###

System: PC-3 prostate
Experiment: NCI-60 one-dose screen, 48 h (100 = growth as untreated, 0 = no growth, -100 = all killed)
Details: 10 µM unless noted
This is part of a sample that, as a whole, favours compounds with a hit. Of some 83,000 tested, about 20% had one in any assay. Active and inactive are the calls of the source. How the source made its calls: active means growth percent below 10; inactive means the rest.
Parameter measured: growth

Sample records with growth:
- Compound: "CNC(=O)c1cccc(Cn2nc(C)c(NC(=O)c3ccc(COc4ccc(C(F)(F)F)cc4C)cc3)c2C)c1"
  growth: "40.1% (inactive)"
- Compound: "Cc1ccc(-c2[nH][nH]c(=O)c2-c2nc3ccccc3s2)cc1"
  growth: "96.9% (inactive)"
- Compound: "CCOC(=O)[C@@H]1CCCN(S(=O)(=O)c2ccc(S(=O)(=O)N(CC)CC)c(F)c2)C1"
  growth: "84% (inactive)"
- Compound: "O=C1Nc2cc(-c3ccc(NC(=O)c4ccccc4)cc3)ccc2/C1=C/c1ccc[nH]1"
  growth: "101% (inactive)"
- Compound: "Cc1nn(-c2ccccc2)c(Cl)c1/C=C/C(=O)c1ccc(F)cc1"
  growth: "78.7% (inactive)"

Reported growth (PC-3 prostate) for entry `COc1ccc(/C=C/c2nc(Nc3ccc(S(=O)(=O)NC(C)=O)cc3)c3ccccc3n2)cc1` is 79.3% (inactive)

Reported growth (PC-3 prostate) for entry `Cc1ncc(C(=O)Nc2ccc(CN3CCN(C)CC3)c(C(F)(F)F)c2)cc1C#Cc1cnc(N)cc1C#N` is -55.6% (active)
